# GPI IC50 listing for each entry below
# Target or system: µ-receptor (guinea pig ileum preparation) (guinea pig)
# Test summary: cell-based or functional assay
Positions of bridges follow the written chain, without caps; N, C: chain ends. Non-standard residues stand in square brackets, D forms with d. No end group written: not given here. AlaL = alanine half of a lanthionine (monosulfide) bridge; dValL = not defined here
Measured metric: GPI IC50

Binder	Measured value
Y[dValL]GF[AlaL]-OH (thioether 2-5; reading uncertain; also: printed as Tyr-c[D-ValL-Gly-Phe-L-AlaL]-OH) [Tyr-c[D-ValL-Gly-Phe-L-AlaL]-OH]	0.039 µM
Y[dValL]GF[AlaL]-OMe (thioether 2-5; reading uncertain; also: printed as Tyr-c[D-ValL-Gly-Phe-L-AlaL]-OMe) [Tyr-c[D-ValL-Gly-Phe-L-AlaL]-OMe]	0.0881 µM
Y[dValL]GF[dAlaL]-OH (thioether 2-5; reading uncertain; also: printed as Tyr-c[D-ValL-Gly-Phe-D-AlaL]-OH) [Tyr-c[D-ValL-Gly-Phe-D-AlaL]-OH]	0.535 µM
Y[dAlaL]GF[dAlaL]-NH2 (thioether 2-5) [Tyr-c[D-AlaL-Gly-Phe-D-AlaL]-NH2]	0.00167 µM

Values were extracted from patent US20020165132A1.
